# Tested on: BT-549 breast
# PROCEDURE_TEXT: NCI-60 one-dose screen, 48 h
# RUN_PARAMETERS: 10 µM unless noted
Compounds without any hit were thinned out: in the full panel of roughly 83,000, 20% have a hit. Calls of active or inactive are those of the source. The calls were made as follows: active = growth percent below 10; inactive = the rest.
Pick one and only one: active, inactive

See these solved cases before continuing.
What classification did `COc1cnc2c(c1)C(=O)c1c-2n(CCCn2ccnc2)c(=O)c2cc(OC)c(OC)cc12` end up with in this test?
active

Try this compound next: `CC1(C)CC[C@]2(C(=O)N3CCCNCC3)CC[C@]3(C)C(=CC[C@@H]4[C@@]5(C)CCC(=O)C(C)(C)[C@@H]5CC[C@]43C)[C@H]2C1`
inactive

Request: `Oc1ccc(CSc2nnc(-c3ccncc3)n2-c2ccccc2)c2cccnc12`
inactive

Another compound to look at: `O=C(Nc1cccc(Cl)c1)Nc1nc2ccc(-c3cccc4ccccc34)cc2s1`
inactive

Item: `COc1ccc(/C(C)=C(\c2ccc(Cl)cc2)c2ccc(OCCN)cc2)cc1`
inactive

Here is the next compound: `Cc1nn(-c2ccc(Cl)cc2)c(C)c1N=Nc1ccc2oc(=O)ccc2c1`
inactive

Same thing, different compound: `Clc1ccc(-c2csc(Nc3cccc(Nc4csc(-c5ccc(Cl)cc5)n4)c3)n2)cc1`
inactive

Another: Nc1nc(N)c2c(n1)NC(c1ccc(Cl)cc1)CC(c1ccc(Nc3nc(NCCO)nc(Nc4ccc(Cl)cc4)n3)cc1)=N2 (centres undefined)
inactive

Next:
Assay outcome for `CCNCCCn1c2c(c3cc(OC)c(OC)cc3c1=O)C(=O)c1cc(OC)cnc1-2` : what was it?
inactive

Lookup `C=CCn1c(SCC(=O)Nc2cccc(C(=O)/C=C/c3ccc(Br)cc3)c2)nc2ccccc2c1=O`
inactive

Could you do the same for `CC(C)Sc1nc(NC2CC2)c(C#N)c(-c2ccccc2)n1` , please?
inactive

What do we get for `O=S(=O)(Nc1ccc(C2CC2)cc1)c1ccc(-c2cnc(C3CC3)o2)cc1` ?
inactive

Also, `CC(=O)c1sc(Nc2cccc(Nc3nc(C)c(C)s3)c2)nc1C` please.
inactive

Moving on to `O=C(CCCCCCN1CC(=O)N2[C@@H](c3ccccc3)c3[nH]c4ccccc4c3C[C@H]2C1=O)NO`
inactive

// query: `Oc1ccc(CSc2nnc(-c3ccc(Br)cc3)o2)c2cccnc12`
inactive

Same question for `C=C1C(=O)O[C@@H]2/C=C(/C)C3=CC(=O)[C@@](C)(C[C@H](OC(=O)/C(C)=C\C)[C@@H]12)O3` please.
inactive

Check `COc1cc(/C=C2\SC(=O)NC2=O)ccc1OCC(=O)Nc1ccc(C(=O)/C=C/c2cc3ccccc3nc2Cl)cc1` too.
inactive

# repeat for `c1ccc(-c2c(-c3ccccc3)[n+](Cc3ccc4ccccc4c3)c(-c3ccccc3)n2Cc2ccc3ccccc3c2)cc1`
active

Next: `CCNC(=NCCCN(C)C)N/C(N)=N/c1nc2ccccc2s1`
inactive

* * *

# Test system: U251 CNS
# PROCEDURE_TEXT: NCI-60 one-dose screen, 48 h (100 = growth as untreated, 0 = no growth, -100 = all killed)
# RUN_PARAMETERS: 10 µM unless noted
This is part of a sample that, as a whole, favours compounds with a hit. Of some 83,000 tested, about 20% had one in any assay.
Mark 1 only for growth values smaller than 60%; exact matches and larger values are 0.

Recorded results for 6 compounds are shown here.
Quick check: growth of `Cn1cc(-c2nn3cc(-c4cccnc4)nc3s2)c2ccccc21` under 60%?
1

Item: `C#C[C@]1(O)CC[C@H]2[C@@H]3CC=C4c5sc(Nc6cc(OC)ccc6OC)nc5CC[C@]4(C)[C@H]3CC[C@@]21C`
1

Now try `O=C(O)CNS(=O)(=O)c1ccc(Oc2ccc(S(=O)(=O)NCC(=O)O)cc2)cc1` .
0

Same again, this time with `COc1ccc(NC(=O)[C@H](C)NC(=O)OC(C)(C)C)cc1C(=O)Nc1cccc(-c2cc(=O)c3c(OC)c(OC)c(OC)cc3o2)c1`
1

Follow-up entry: `C=C1C(=O)O[C@@H]2/C=C(/C)C3=CC(=O)[C@@](C)(C[C@H](OC(=O)/C(C)=C\C)[C@@H]12)O3`
1

Same question, `CC(C)(C)OC(=O)N1CCN(S(=O)(=O)/N=C2\NC(=O)NC2=C(Cl)Cl)CC1` this time
0

---
In the record for `Cc1nn(-c2ccccc2)c2nc(CCl)[nH]c(=O)c12` , is growth less than 60%?
0

Same again, this time with `C#C[C@]1(O)CC[C@H]2[C@@H]3CC=C4c5sc(Nc6cccc(C)n6)nc5CC[C@]4(C)[C@H]3CC[C@@]21C`
1

Another compound: `COc1cc2cc(Oc3ccc(NC(=O)c4cccc(C(F)(F)F)c4)cc3)c(C)nc2cc1OCCN(C)C`
0

* * *

# Tested on: KM12 colon
# PROCEDURE_TEXT: NCI-60 one-dose screen, 48 h
# RUN_PARAMETERS: 10 µM unless noted
The panel holds about 83,000 compounds, 20% with a hit somewhere; the sample as a whole holds those more often. Active and inactive are the calls of the source. Rule for the calls: active = growth percent below 10; inactive = the rest.
Hi! Could you answer with just one of these? active, inactive

Sample answers from the record:
For this molecule, state the assay outcome: `Cn1cc(-c2nn3c(=O)cc(-c4ccccc4)nc3s2)c2cc(F)ccc21`
inactive

Now consider `ClC(Cl)c1nc(-c2cccs2)n2nc(-c3ccccc3)cc2n1` and answer again.
active

Same read-out for CC(C)(C)n1nnnc1C(Nc1nccs1)c1cc2cccc3ccc4cccc1c4c32 (stereo not given) ?
inactive

And for `CS(=O)(=O)c1ccc(-c2nn(-c3ccccc3)cc2/C=N/NC(=O)c2ccncc2)cc1` ?
inactive

Now for another entry.
Could you please tell me the result logged for `COc1ccc(/C=N\NC(=O)c2ccc3nc(-c4ccc(Br)cc4)[nH]c3c2)cc1` in this assay?
inactive

* * *

# Tested on: HOP-62 NSCLC
# PROCEDURE_TEXT: NCI-60 one-dose screen, 48 h (100 = growth as untreated, 0 = no growth, -100 = all killed)
# RUN_PARAMETERS: 10 µM unless noted
This is part of a sample that, as a whole, favours compounds with a hit. Of some 83,000 tested, about 20% had one in any assay.
Quick reference: growth of the listed items.
The response must be a number in % with no trailing unit.

Known growth results, listed for orientation:
# growth lookup, item `Oc1ccc(-c2nnc(SCc3ccc(O)c4ncccc34)n2-c2ccccc2)cc1`
19.3

Same lookup for `O=C1/C(=C/c2ccc([N+](=O)[O-])cc2)SC(=Nc2ccccc2)N1Nc1ccccc1` , please.
97.1

Others:
Dear colleague, I am looking for the recorded growth of the following molecule: `O=C1c2cc(Br)ccc2-n2c1nc1cc(Br)ccc1c2=O`
82.3

Now this one: `CC(C)N=C(N/C(N)=N/c1nc2ccccc2s1)NC(C)C`
55.4

Then what about the molecule `NC(=S)N/N=C(/C=C/c1cn(-c2ccccc2)nc1-c1ccc(Cl)cc1)c1cc2ccccc2oc1=O` ?
43

* * *

# Tested on: HT29 colon
# PROCEDURE_TEXT: NCI-60 one-dose screen, 48 h
# RUN_PARAMETERS: 10 µM unless noted
This is part of a sample that, as a whole, favours compounds with a hit. Of some 83,000 tested, about 20% had one in any assay. Active and inactive are the calls of the source. How the source made its calls: active means growth percent below 10; inactive means the rest.
Your reply should match one of these outcome classes. 1.0 (active), 0.0 (inactive)

# count of solved cases: 4
I would be grateful if you could indicate the recorded call for `C/C(=C(/c1ccc(O)cc1)c1ccc(OCCN2CCCC2)cc1)c1ccc(Cl)cc1` .
1.0

Now the compound `COc1cc2c3c(n(CCCN4CCC[C@H]4C(N)=O)c(=O)c2cc1OC)-c1cc2c(cc1C3=O)OCO2`
1.0

`C=C1C(=O)O[C@@H]2C[C@@H](C)/C=C\C(=O)[C@](C)(OC(C)=O)C[C@H](OC(=O)/C(C)=C\C)[C@@H]12` , same question.
1.0

Could you do the same for `Cc1cc(=O)n2nc(-c3cn(C)c4ccc(Cl)cc34)sc2n1` , please?
0.0

From here, focus on the item given below.
# lookup: test call for `CC(C)(C)OC(=O)N1CCN(S(=O)(=O)/N=C2\NC(=O)NC2=C(Cl)Cl)CC1`
0.0

* * *

# Test system: TK-10 renal
# PROCEDURE_TEXT: NCI-60 one-dose screen, 48 h (100 = growth as untreated, 0 = no growth, -100 = all killed)
# RUN_PARAMETERS: 10 µM unless noted
About 83,000 compounds went through this panel and 20% of them were active in at least one assay; those are over-represented in the sample as a whole.
This listing pairs molecules with measured growth.
Form entry: value (%) — number only.

Below, each entry is followed by its recorded growth result.
Recorded growth for Cc1ccccc1NC1CC(=O)N(c2ccc(Cl)cc2Cl)C1=O (centres undefined) with TK-10 renal, please?
99.3

Ok, now `CCOC(=O)c1c(NC(=O)c2cccc(C(F)(F)F)c2)sc2c(CN3CCN(C)CC3)c(O)ccc12`
-52.7

Check `CCOC(=O)c1c(Nc2ccccc2)nn2c(-c3ccc(Br)cc3)ccnc12` too.
90.6

Follow-up entry: `COc1cc(/C=C2\SC(=O)NC2=O)ccc1OCC(=O)Nc1ccc(C(=O)/C=C/c2cc3ccccc3nc2Cl)cc1`
104

Also `CN1CCN(c2ccc(C(=O)Nc3cccc(-c4cn(-c5ccc(S(N)(=O)=O)cc5)nn4)c3)cc2C(F)(F)F)CC1` ?
117

***
Return growth measured with TK-10 renal given this molecule: Cc1cccc(NC(c2cc3cccc4ccc5cccc2c5c43)c2nnnn2C(C)(C)C)c1C (centres undefined)
138

Next entry: `Nc1nc(-c2cccc([N+](=O)[O-])c2)c(N=Nc2ccccc2Cl)s1`
85.7

Cool, now `CC(=O)C1=NN(c2ccc(Cl)cc2)C(=O)CN1C`
91.2

And then `CN1CCN(c2nc(-c3csc(-c4ccncc4)n3)cc3ccccc23)CC1` , what is it?
75.9
